# Lookup of reported SPR respons keyed by entry
molecular target: carboxyl terminal domain (CT) of Cx43 (Rattus norvegicus, UniProt P08050); construct: GST (N, cleaved yes); made in house; host or cells: E. coli BL-21; assay: Peptide binding to Cx43CT determined using surface plasmon resonance (SPR); details: peptide 100 uM; immobilised recombinant Cx43CT
Sequence (P08050 255-382): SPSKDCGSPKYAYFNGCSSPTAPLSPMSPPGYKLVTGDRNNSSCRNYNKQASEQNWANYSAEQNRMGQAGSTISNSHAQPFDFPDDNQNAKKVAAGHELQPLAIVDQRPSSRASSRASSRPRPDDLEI
PROPERTY: SPR respons

>>> experimental_result("Ac-Arg-Arg-Asn-Tyr-Ser-His-Ser-Arg-Arg-Asn-Tyr-NH2 (Ac-RRNYSHSRRNY-NH2) [Compound 2507]")
"113.5 arbitrary units"
>>> experimental_result("Ac-Arg-Arg-Asn-Tyr-Gly-Gly-Gly-Ser-Ala-Val-Pro-Phe-Tyr-Arg-Arg-Asn-Tyr-NH2 (Ac-RRNYGGGSAVPFYRRNY-NH2) [Compound 2508]")
"121.9 arbitrary units"
>>> experimental_result("Ac-Arg-Arg-Asn-Tyr-Gly-Gly-Ser-Ala-Val-Pro-Phe-Tyr-Ser-His-Arg-Arg-Asn-Tyr-NH2 (Ac-RRNYGGSAVPFYSHRRNY-NH2) [Compound 2510]")
"176.2 arbitrary units"
>>> experimental_result("Ac-Arg-Arg-Asn-Tyr-Val-Pro-Arg-Arg-Asn-Tyr-NH2 (Ac-RRNYVPRRNY-NH2) [Compound 2512]")
"50.7 arbitrary units"
>>> experimental_result("Ac-Arg-Arg-Asn-Tyr-Ala-Val-Pro-Phe-Arg-Arg-Asn-Tyr-NH2 (Ac-RRNYAVPFRRNY-NH2) [Compound 2511]")
"90.5 arbitrary units"
>>> experimental_result("Ac-Arg-Arg-Asn-Tyr-Ser-Ala-Val-Pro-Phe-Tyr-Ser-His-Ser-Arg-Arg-Asn-Tyr-NH2 (Ac-RRNYSAVPFYSHSRRNY-NH2) [Compound 2506]")
"117.2 arbitrary units"

###

Below, each entry is listed with its recorded SPR respons.
biological target: carboxyl terminal domain (CT) of Cx43 (Rattus norvegicus, UniProt P08050); construct: GST (N, cleaved yes); made in house; host or cells: E. coli BL-21; assay: Peptide binding to Cx43CT determined using surface plasmon resonance (SPR); details: peptide 1 mM; immobilised recombinant Cx43CT
PROPERTY: SPR respons (arbitrary units)

>>> experimental_result("Ac-Arg-Arg-Asn-Tyr-Gly-Gly-Gly-Arg-Arg-Asn-Tyr-NH2 (Ac-RRNYGGGRRNY-NH2) [Compound 2509]")
478.9
>>> experimental_result("Ac-Arg-Arg-Asn-Tyr-Ser-His-Ser-Arg-Arg-Asn-Tyr-NH2 (Ac-RRNYSHSRRNY-NH2) [Compound 2507]")
703.2
>>> experimental_result("Ac-Arg-Arg-Asn-Tyr-Val-Pro-Arg-Arg-Asn-Tyr-NH2 (Ac-RRNYVPRRNY-NH2) [Compound 2512]")
394.7
>>> experimental_result("Ac-Tyr-Asn-Arg-Arg-NH2 (Ac-YNRR-NH2) [Compound 2499]")
69.4

###

SPR respons values, listed per item
molecular target: carboxyl terminal domain (CT) of Cx43 (Rattus norvegicus, UniProt P08050); construct: GST (N, cleaved yes); made in house; host or cells: E. coli BL-21; assay: Peptide binding to Cx43CT determined using surface plasmon resonance (SPR); details: peptide 100 uM; immobilised recombinant Cx43CT
PROPERTY: SPR respons (arbitrary units)

>>> experimental_result("Ac-Arg-Arg-Asn-Tyr-Gly-Gly-Gly-Arg-Arg-Asn-Tyr-NH2 (Ac-RRNYGGGRRNY-NH2) [Compound 2509]")
62.5
>>> experimental_result("Ac-Arg-Arg-Asn-Tyr-Arg-Arg-Asn-Tyr-NH2 (Ac-RRNYRRNY-NH2) [Compound 2497]")
84.2
>>> experimental_result("Ac-Tyr-Asn-Arg-Arg-Gly-Gly-Gly-Ser-Ala-Val-Pro-Phe-Tyr-Ser-His-Ser-Tyr-Asn-Arg-Arg-NH2 (Ac-YNRRGGGSAVPFYSHSYNRR-NH2) [Compound 2496]")
155.9

Every entry's value here was drawn from patent US20100298225A1.
